Biological target: Rap guanine nucleotide exchange factor 3 (Homo sapiens)
Assay: Counterscreen qHTS for antagonist of cAMP-regulated guanine nucleotide exchange factor 3 (EPAC1) (AID 1645888);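 further: fluorescence loss as bound BODIPY-GDP is released from Rap1B; % of control where 0% means no effect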
Settings: Rap1B-BODIPY-GDP nucleotide exchange, fluorescence; series mostly up to 154 µM
Results filed as inconclusive are left out. Activity calls are given as the source filed them. The call rests on the fitted dose curve; in most records, active means well fitted inhibition curve with a large enough effect; inconclusive means small, poorly fitted or top-dose-only effect; inactive means no such curve, though single readings can be large or run the other way.
READOUT_KIND: activity change, negative = inhibition

Recorded results for 5 molecules are shown here.
* Cc1cc(C)cc(NC(=O)N2CCC(CN3CCc4ccccc4C3)CC2)c1 | inactive
* COc1ccc(OC)c(-c2nc3c(C#N)c[nH]n3c2NC2CCCCC2)c1 | inactive
* CCOc1ccc(NC(=O)CN(C)C(=O)c2cc3c(s2)CCC3)cc1OCC | inactive
* CCOc1ccc(Oc2ccccc2NC(=O)CN2C(=O)NC3(CCCC3)C2=O)cc1 | -5.88% [at 30.8 µM] (inactive)
* CC(C)(CNC(=O)Cc1ccc(NS(=O)(=O)c2cccc(C(F)(F)F)c2)cc1)N1CCOCC1 | 10.3% [at 30.8 µM] (inactive)

Please go through the list and note activity change, negative = inhibition for each molecule.
1. CCOc1ccccc1C(=O)N(Cc1cccs1)c1ccc(Cl)cc1
2. Cc1cccc(C(=O)Nc2cccc(C(=O)N/N=C/c3cccc(C)n3)c2)c1
3. CSCCC(NS(=O)(=O)c1ccc2c(c1)oc(=O)n2C)C(=O)NC1CCCc2ccccc21 (stereo unspecified)
4. Cc1[nH]c2ccccc2c1C(C[N+](=O)[O-])c1cccs1 (stereo unspecified)
5. Cc1ccc(NC(=O)CN2C(=O)N/C(=C/c3ccccc3OCc3cccc(C(=O)O)c3)C2=O)cc1

1. inactive
2. inactive
3. inactive
4. -10.6% [at 30.8 µM] (inactive)
5. -1.86% [at 30.8 µM] (inactive)

Batch: activity change, negative = inhibition for all items listed.
1. CCc1nc2c(OCc3ccc(OC(F)F)cc3)cccn2c1N(C)C(=O)c1ccc(OC)cc1
2. Cc1ccc(/C=C/C(=O)c2ccccc(=O)c2O)c(C)c1

1. inactive
2. 12.3% [at 30.8 µM] (inactive)

Parameters: items (list). Returns: activity change, negative = inhibition for each item.
1. COC(=O)c1sc(-c2ccc(C(C)(C)C)cc2)cc1NC(=O)c1ccccc1C(=O)O
2. CC1CCc2[nH]c3ccc(C(=O)N(C)CC(=O)Nc4ccccc4Br)cc3c2C1 (stereo unspecified)
3. O=C(Nc1cc(C(=O)Nc2ccccc2C(=O)O)cc(C(=O)Nc2ccccc2C(=O)O)c1)c1ccccc1
4. O=C(Nc1cc(-c2ccccc2)sc1C(=O)O)c1cccc(F)c1
5. NNc1nc2c(Cl)c(Cl)ccc2s1
6. CCCCC(CC)Cn1c(Oc2ccccc2)nc2c1c(=O)n(C)c(=O)n2C (stereo unspecified)
7. COc1cc2c(cc1OC)C(c1ccccc1Cl)N(C)CC2 (stereo unspecified)
8. CCOc1ccc(N2CC(c3nc4ccccc4n3Cc3cccc(Cl)c3)CC2=O)cc1 (stereo unspecified)

1: -19.7% [at 30.8 µM] (inactive); 2: inactive; 3: 11.5% [at 30.8 µM] (inactive); 4: inactive; 5: 3.53% [at 30.8 µM] (inactive); 6: inactive; 7: 3.04% [at 30.8 µM] (inactive); 8: inactive

Hey, quick one: what's activity change, negative = inhibition for each of these?
1. CCOC(=O)c1ccc(NC(=O)Cn2nc(C)c3nn(-c4ccc(Cl)cc4)c(C)c3c2=O)cc1
2. N#Cc1c(-c2ccccc2)nc(SCC(=O)Nc2ccc(OC(F)(F)Cl)cc2)[nH]c1=O
3. Cc1nn(-c2ccccc2)c(C)c1NC(=O)COC(=O)Cc1cccc(C(F)(F)F)c1
4. O=C1C=CC(=O)c2c(O)c(N3CCN(CCOCCO)CC3)c(Br)c(O)c21
5. COc1cc2cc(CNc3ccc(C)cc3)c(=O)n(CC(=O)Nc3ccc(F)cc3F)c2cc1OC
6. CC1(C)CC(=O)C=C(c2ccc(F)cc2OCc2ccccc2)C1
7. CCOC(=O)c1ccccc1NC(=O)CSc1nccn1Cc1ccco1
8. COc1cccc(CN2C(=O)C3(SCC(=O)N3c3ccc(F)cc3)c3ccccc32)c1 (stereo unspecified)

inactive
inactive
inactive
inactive
inactive
inactive
inactive
inactive

Each of the following entries comes with a recorded value; kindly state activity change, negative = inhibition for each.
1. O=S(=O)(Nc1nccs1)c1ccc(NCc2cc(Br)cc(Br)c2O)cc1
2. CCc1nn2c(-c3ccccc3OC)ccnc2c1-c1ccccc1
3. COc1ccc2cc(-c3cn4c(n3)sc3cc(F)ccc34)c(=O)oc2c1
4. Oc1cccc(C(Nc2ccccn2)c2ccc3cccnc3c2O)c1Cl (stereo unspecified)

["9.07% [at 30.8 µM] (inactive)", "inactive", "inactive", "inactive"]

Provide activity change, negative = inhibition for all items below, preserving their order.
1. Oc1ccc(/C=N/Nc2ncnc3c2ncn3Cc2ccccc2)cc1O
2. O=C(O)C(c1ccccc1)N1C(=O)/C(=C\c2ccc(O)c(O)c2)SC1=S (stereo unspecified)
3. CN(C)c1ccccc1C(=O)N1CCCC(C(=O)c2ccc3ccccc3c2)C1 (stereo unspecified)
4. Cc1ccc(-c2cc([C@H]3[C@@H]4C=CCC[C@@]4(C)C(=O)N3Cc3ccccc3)ccc2F)cc1

-13.7% [at 30.8 µM] (inactive)
inactive
-1.02% [at 30.8 µM] (inactive)
-9.39% [at 30.8 µM] (inactive)
